target: prion protein PrP alpha-form, full-length mature, oxidized (Bos taurus, UniProt P10279 P10279:25-241); test: EMSA; conditions: tags: 6-octarepeat allele, Met-initiated, E. coli, untagged (Ni-NTA, SP-Sepharose, Superdex 75)
Sequence (P10279 25-241, one chain of several): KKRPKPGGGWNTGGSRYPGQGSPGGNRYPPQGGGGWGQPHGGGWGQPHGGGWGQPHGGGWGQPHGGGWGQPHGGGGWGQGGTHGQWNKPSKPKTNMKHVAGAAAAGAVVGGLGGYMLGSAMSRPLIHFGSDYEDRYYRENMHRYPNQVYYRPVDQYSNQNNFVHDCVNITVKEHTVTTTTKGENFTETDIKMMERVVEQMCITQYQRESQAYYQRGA

# BINDER, binding result
data = [
    ("Group I clone 1 (random region) (ssRNA, 2'-F pyrimidines) RNA: GGGAGACAAGACUAGACGCUCAACUUUCCUAGCGCACAUGCGCACCUCUAUGCGUAAUACGAACGUUGACGUUCGACAUGAGACUCACAACAGUUCCCUUUAGUGAGGGUUAAUU", "binds"),
    ("Group I clone 12 (random region) (ssRNA, 2'-F pyrimidines) RNA: GGGAGACAAGACUAGACGCUCAACUUUCCUAGCGCACAUGCGCACCUCUAUGCGUAAUACGAACGUCGGCGUUCGACAUGAGACUCACAACAGUUCCCUUUAGUGAGGGUUAAUU", "binds"),
]
